Source of measurements: patent US7884116B2

system: A549 (human lung cancer cell); assay: Test about the suppression of cell growth (MTT); format: cell-based; settings: 72 h, A549, 3 days
METRIC_NAME: IC50 (nM)

C/C(=C\C=C\[C@@H]1[C@H]2[C@H](C)[C@@H](O)[C@H](C)C[C@@H]2C=C[C@@H]1C)C(=O)NCc1cccnc1 | 85

---

System: AsPC-1 (human pancreas cancer cell)
Experiment: Test about the suppression of cell growth (MTT)
Format: cell-based
Conditions: ASPC1, 72 h, AsPC-1, 3 days
Protocol: Various cancer cells and normal cell as cultured in a culture broth to 70 to 90% confluency were used. After the culture broth was removed, 0.25% trypsin/1 mM-EDTA solution was added to scrape off the cells and count the cells. Then, a cell suspension of 5×10^4 cells/ml was prepared. The suspension was divided at 90 μl/well into a 96-well plate, and allowed to stand alone in a CO2 incubator. […]
METRIC_NAME: IC50

C/C(=C\C=C\[C@@H]1[C@H]2[C@H](C)[C@@H](O)[C@H](C)C[C@@H]2C=C[C@@H]1C)C(=O)NCc1cccnc1 | 113 nM
